Test Target: MDM2 (Homo sapiens)
Sequence (Q00987 1-125): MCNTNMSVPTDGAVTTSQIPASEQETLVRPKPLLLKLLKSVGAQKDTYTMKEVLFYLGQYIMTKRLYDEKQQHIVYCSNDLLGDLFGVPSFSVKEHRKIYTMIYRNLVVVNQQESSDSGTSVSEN
Method Description: Competitive fluorescence polarization assay for MDM2
Type: binding
Condition Notes: competitive FP assay, MDM2; read-out: Ki (MDM2)
Endpoint: Ki

1) CC(=O)N[C@@H](CC(C)C)C(=O)N[C@H](C(=O)N[C@@H](Cc1ccccc1)C(=O)N[C@]1(C)CCCCCCC=CCCC[C@@](C)(C(=O)N[C@@H](CO)C(=O)N[C@@H](C)C(=O)N[C@@H](C)C(N)=O)NC(=O)[C@H](CC2CCC2)NC(=O)[C@H](CCC(N)=O)NC(=O)[C@H](C)NC(=O)[C@H](Cc2c[nH]c3ccccc23)NC(=O)[C@H](Cc2ccc(O)cc2)NC(=O)[C@H](CO)NC1=O)[C@@H](C)O (single isomer, unassigned): < 10 nM

The record that follows has no Ki shown yet.
[Q] Item CCCC[C@H](NC(=O)[C@H](C)NC(=O)[C@H](C)NC(=O)[C@]1(C)CCCC=CCCCCCC[C@@](C)(NC(=O)[C@H](Cc2ccccc2)NC(=O)[C@@H](NC(=O)[C@H](CC(C)C)NC(C)=O)[C@@H](C)O)C(=O)N[C@@H](C)C(=O)N[C@@H](Cc2ccc(O)cc2)C(=O)N[C@@H](Cc2c[nH]c3ccccc23)C(=O)N[C@@H](CO)C(=O)N[C@@H](CCC(N)=O)C(=O)N[C@@H](CCC(C)C)C(=O)N1)C(=O)N[C@@H](C)C(N)=O (single isomer, unassigned) has what recorded Ki?
[A] 10 to 100 nM

---

Test Target: UniProtKB O15151
Sequence (O15151 1-125): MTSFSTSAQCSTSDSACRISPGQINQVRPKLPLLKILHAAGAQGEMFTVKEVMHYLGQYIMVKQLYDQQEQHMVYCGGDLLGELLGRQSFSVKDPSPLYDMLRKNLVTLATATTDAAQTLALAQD
Method Description: Competitive fluorescence polarization assay for MDMX
Format: binding
Condition Notes: competitive FP assay, read-out: IC50 (MDMX)
pIC50: −log10 of the molar value. Where a SMILES comes first, the peptide text is derived from it. Bridges are numbered along the chain shown (N, C = ends). [ ]: non-standard residue; d: D form. R8 = C=CCCCCCC[C@@](C)(N)C(=O)O; S5 = C=CCCC[C@](C)(N)C(=O)O; Ac3c = NC1(C(=O)O)CC1
Endpoint: pIC50

1) CSCC[C@H](NC(=O)[C@H](C)NC(=O)[C@H](C)NC(=O)[C@]1(C)CCCC=CCCCCCC[C@@](C)(NC(=O)[C@H](Cc2ccccc2)NC(C)=O)C(=O)N[C@@H](C)C(=O)N[C@@H](Cc2ccc(O)cc2)C(=O)N[C@@H](Cc2c[nH]c3ccccc23)C(=O)N[C@@H](CCC(=O)O)C(=O)NC2(CC2)C(=O)N[C@@H](CC(C)C)C(=O)N1)C(N)=O [compound 16] (Ac-F[R8]AYWE[Ac3c]L[S5]AAM-NH2; staple 2-9): 7.00 to 8.00

The record that follows has no pIC50 shown yet.
[Q] Item CC(=O)N[C@@H](CCC(=O)O)C(=O)N[C@H](C(=O)N[C@@H](Cc1ccccc1)C(=O)N[C@]1(C)CCCCCCC=CCCC[C@@](C)(C(=O)N[C@@H](CO)C(=O)N[C@@H](C)C(=O)N[C@@H](C)C(N)=O)NC(=O)[C@H](CC(C)C)NC(=O)[C@H](CCC(N)=O)NC(=O)[C@H](C)NC(=O)[C@H](Cc2c[nH]c3ccccc23)NC(=O)[C@H](Cc2ccc(O)cc2)NC(=O)[C@H](CCC(=O)O)NC1=O)[C@@H](C)O [compound 161] (Ac-ETF[R8]EYWAQL[S5]SAA-NH2; staple 4-11) has what recorded pIC50?
[A] 6.00 to 7.00
